Recorded values, source paper PMC9482650.

Biological target: HTRA1, Q92743
Sequence (Q92743 360-477): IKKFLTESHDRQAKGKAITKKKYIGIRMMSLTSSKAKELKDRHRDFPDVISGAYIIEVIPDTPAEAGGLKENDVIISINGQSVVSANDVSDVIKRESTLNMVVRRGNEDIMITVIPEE
Assay: holdup assay
Set-up: key: below the threshold = too weak to quantify, mostly under pKd 3.1 to 4
Conditions: plain residues with an end cap or a label only (N-terminal biotin on a linker: ahx)
pKd values for the binders below.

{"binder": "LSDPSVSTVV [GRIN1, Q05586;Q05586-2]", "pKd": 4.32}
{"binder": "GYDWGPATDL [TJP3, O95049]", "pKd": 4.12}
{"binder": "TVICWPGSLV [LNX2, Q8N448]", "pKd": 4.94}
{"binder": "HNAFLSVTTV [PDZRN4, Q6ZMN7]", "pKd": 3.61}
{"binder": "SDSSGQEYSL [KCTD3, Q9Y597]", "pKd": 3.98}
{"binder": "RRRKRKRTYL [HPV49-L2, P36762]", "pKd": 3.99}
